Values were extracted from patent US20220112288A1.

Molecular target: T1, human CD4 on cells (SKW3 cells; human PBMCs) (human, UniProt P01730 26-458)
T1 construct: whole, on cells; SKW3 CD4 knockout cells served as the negative cell line for the WT vs KO ratios; also called hCD4; SKW3 WT
Assay: FACS primary screen, non-clonal hybridoma supernatant; SKW3 WT vs SKW3 CD4 KO cells, anti-mFc-647
Measured SKW3 WT vs KO anti-mFc-647, listed per entry for reference.
Endpoint name: SKW3 WT vs KO anti-mFc-647 (fold)

1) 75110_05A11A (antibody, V domains shown, Tested as non-clonal hybridoma supernatant (AlivaMab Mouse Kappa), detected with anti-mouse Fc and anti-human kappa) VH: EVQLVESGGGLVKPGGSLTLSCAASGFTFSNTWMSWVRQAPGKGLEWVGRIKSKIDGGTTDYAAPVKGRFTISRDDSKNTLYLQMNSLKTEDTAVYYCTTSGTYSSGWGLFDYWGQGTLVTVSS VL: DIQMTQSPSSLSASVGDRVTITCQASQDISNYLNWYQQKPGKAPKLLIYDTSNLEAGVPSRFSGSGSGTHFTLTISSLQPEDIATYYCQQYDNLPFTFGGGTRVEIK :: 3.4
2) 75110_02E22A (antibody, V domains shown, Tested as non-clonal hybridoma supernatant (AlivaMab Mouse Kappa), detected with anti-mouse Fc and anti-human kappa) VH: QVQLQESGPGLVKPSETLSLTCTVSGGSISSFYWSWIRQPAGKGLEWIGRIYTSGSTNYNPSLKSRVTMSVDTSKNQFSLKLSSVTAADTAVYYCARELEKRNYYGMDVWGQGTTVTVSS VL: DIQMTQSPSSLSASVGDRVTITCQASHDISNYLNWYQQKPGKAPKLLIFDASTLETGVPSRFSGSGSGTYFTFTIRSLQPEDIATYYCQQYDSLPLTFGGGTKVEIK :: 4.7
